meta.source: the supplement of paper PMC9233669

system: biotinyl-Leu-oxazolone; test: self-aminoacylation, catalytic enhancement (BLO) (fold over background); higher = more active; k-Seq, kA / k0A0; sequences stand for … in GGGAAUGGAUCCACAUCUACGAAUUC…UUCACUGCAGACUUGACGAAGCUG
Fewer inactive variants are shown than the library holds.
Short version: self-aminoacylation at least 0.9 is true (1), less is false (0).

Record excerpt, results attached:
>>> label_value("CUACUUCAAACAAUUGGCCUG [Fam1A.1 aminoacylation ribozyme variant]")
"true (1)"
>>> label_value("CUAUUUCGAACAAUCGGUCUG [Fam1A.1 aminoacylation ribozyme variant]")
"false (0)"
>>> label_value("AAGUUUGCUAAUAGUGGCAAG [Fam3.1 aminoacylation ribozyme variant]")
"false (0)"
>>> label_value("CUAAACUUCAAGCAAUCGGUC [Fam1B.1 aminoacylation ribozyme variant]")
"true (1)"
>>> label_value("AGUCACCUAGGGCAUCGGGUG [Fam2.2 aminoacylation ribozyme variant]")
"true (1)"

Switching to the query record.
Is self-aminoacylation at least 0.9? Consider CCACAUUUCAAGCAAUCGGUG [Fam1B.1 aminoacylation ribozyme variant]
true (1)

----------
Below, each entry is listed with its recorded self-aminoacylation.
tested on: biotinyl-Val-oxazolone; assay: self-aminoacylation, catalytic enhancement (BVO) (fold over background); higher = more active; k-Seq, kA / k0A0; sequences stand for … in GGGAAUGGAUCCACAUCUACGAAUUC…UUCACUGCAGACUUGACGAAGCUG
Variants at the floor of the assay were thinned out.
# print the numeric value only

>>> recorded_value("AUUACCCUGGUCAGCCAGUGA [Fam2.1 aminoacylation ribozyme variant]")
5.21
>>> recorded_value("CUACUUCAAACAACCGGUCUG [Fam1A.1 aminoacylation ribozyme variant]")
0.845
>>> recorded_value("CAGUUUGAUAAUAGUCGCAAG [Fam3.1 aminoacylation ribozyme variant]")
1.54

Shift focus to the following entry.
Fill in: self-aminoacylation of CUACACUUCAAGCUAUCGGUC [Fam1B.1 aminoacylation ribozyme variant] is ___
0.876

----------
test system: biotinyl-Ile-oxazolone; test: self-aminoacylation, catalytic enhancement (BIO) (fold over background); higher = more active; k-Seq, kA / k0A0; sequences stand for … in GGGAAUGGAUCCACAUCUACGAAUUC…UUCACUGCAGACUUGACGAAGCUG
This sample holds only a part of the variants without activity.
recorded.endpoint: self-aminoacylation
# print the numeric value only

>>> recorded_value("AAAUUUGCUAAUAGUCGCAGG [Fam3.1 aminoacylation ribozyme variant]")
1.97
>>> recorded_value("AAUACCCUGCUCAUCGAGUGA [Fam2.1 aminoacylation ribozyme variant]")
1.08
>>> recorded_value("AUUCACCUAGGUCUUCGGGUG [Fam2.2 aminoacylation ribozyme variant]")
3.33
>>> recorded_value("CUACUUCAAGCAAUCAGUCUG [Fam1A.1 aminoacylation ribozyme variant]")
0.772

Fill in: self-aminoacylation of AAGUUUGCUAGUAGUCGCAGG [Fam3.1 aminoacylation ribozyme variant] is ___
0.89

Next record, please: AUUACCCUGGUCUUCGAGUGA [Fam2.1 aminoacylation ribozyme variant]
3.09

Next record, please: CUACUUCAAACACUCGGUGUG [Fam1A.1 aminoacylation ribozyme variant]
1.81

Next record, please: CCACACAUCAAGCAAUCGUUC [Fam1B.1 aminoacylation ribozyme variant]
0.807

Next record, please: CUACUUCUAACAAUCGGCCUG [Fam1A.1 aminoacylation ribozyme variant]
1.09

----------
system: biotinyl-Phe-oxazolone; experiment: self-aminoacylation, catalytic enhancement (BFO) (fold over background); higher = more active; k-Seq, kA / k0A0; sequences stand for … in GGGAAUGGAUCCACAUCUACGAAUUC…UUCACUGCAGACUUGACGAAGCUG
Fewer inactive variants are shown than the library holds.
recorded.endpoint: self-aminoacylation
# print the numeric value only

>>> recorded_value("ACACACUUCAAGCAAUCGCUC [Fam1B.1 aminoacylation ribozyme variant]")
2.24
>>> recorded_value("ACUCACUUCAAGCAAUCGGUC [Fam1B.1 aminoacylation ribozyme variant]")
9.3
>>> recorded_value("AUUCACCUAGGUCGUCGGGUC [Fam2.2 aminoacylation ribozyme variant]")
5.09

Fill in: self-aminoacylation of AUUACUCUGUUCAUCGAGUGA [Fam2.1 aminoacylation ribozyme variant] is ___
3.86

Next record, please: AUUACGCUGGUCAACGAGUGA [Fam2.1 aminoacylation ribozyme variant]
5.51

----------
tested on: biotinyl-Met-oxazolone; assay: self-aminoacylation, catalytic enhancement (BMO) (fold over background); higher = more active; k-Seq, kA / k0A0; sequences stand for … in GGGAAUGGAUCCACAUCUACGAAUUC…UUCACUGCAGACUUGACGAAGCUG
Fewer inactive variants are shown than the library holds.
Below, each entry is listed with its recorded self-aminoacylation.
# print the numeric value only

Fill in: self-aminoacylation of AUUGCCCUGGUCAUCGAGUGA [Fam2.1 aminoacylation ribozyme variant] is ___
53.1

Next record, please: AAGUUUGCUAAUACACGCAAG [Fam3.1 aminoacylation ribozyme variant]
0.7

Next record, please: CCACACUUCAAUCAAUCGGUA [Fam1B.1 aminoacylation ribozyme variant]
0.749

Next record, please: AUUAACCUAGGUCAUGGGGUG [Fam2.2 aminoacylation ribozyme variant]
3.3

Next record, please: AUUACCCUGGUCGUCGAGUGC [Fam2.1 aminoacylation ribozyme variant]
0.9

----------
system: biotinyl-Phe-oxazolone; assay: self-aminoacylation, catalytic enhancement (BFO) (fold over background); higher = more active; k-Seq, kA / k0A0; sequences stand for … in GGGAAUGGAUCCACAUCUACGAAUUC…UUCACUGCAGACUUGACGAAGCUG
Variants at the floor of the assay were thinned out.
recorded.endpoint: self-aminoacylation
# print the numeric value only

The cases that follow already have their self-aminoacylation on record.
>>> recorded_value("CUACUUUAUACAAUCGGUCUG [Fam1A.1 aminoacylation ribozyme variant]")
0.815
>>> recorded_value("AUAACCCUGUUCAUCGAGUGA [Fam2.1 aminoacylation ribozyme variant]")
12.6
>>> recorded_value("AGUACCCUGGUCAUCGGGUGA [Fam2.1 aminoacylation ribozyme variant]")
82.1
>>> recorded_value("AUUACCCUGGUCAUCGAAUAA [Fam2.1 aminoacylation ribozyme variant]")
0.904
>>> recorded_value("UCACACUUCAAGAAAUCGGUC [Fam1B.1 aminoacylation ribozyme variant]")
7.38
>>> recorded_value("CCACAUUUCAAGCAAUCGUUC [Fam1B.1 aminoacylation ribozyme variant]")
1.13
>>> recorded_value("AUUGCCCUGGUCACCGAGUGA [Fam2.1 aminoacylation ribozyme variant]")
70
>>> recorded_value("AAGUUUCCUAAUAGACGCAAG [Fam3.1 aminoacylation ribozyme variant]")
1.32

Fill in: self-aminoacylation of AAAUUUGCUAAUAGUCGCAAA [Fam3.1 aminoacylation ribozyme variant] is ___
2.95

----------
system: biotinyl-Met-oxazolone; test: self-aminoacylation, catalytic enhancement (BMO) (fold over background); higher = more active; k-Seq, kA / k0A0; sequences stand for … in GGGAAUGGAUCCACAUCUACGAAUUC…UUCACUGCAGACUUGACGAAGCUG
Variants at the floor of the assay were thinned out.
Below, each entry is listed with its recorded self-aminoacylation.
# print the numeric value only

Fill in: self-aminoacylation of CCACACCUCAAGCAAUCAGUC [Fam1B.1 aminoacylation ribozyme variant] is ___
0.804

Next record, please: AUUACGCUGGUCAACGAGUGA [Fam2.1 aminoacylation ribozyme variant]
3.33

Next record, please: AUUCACCUGGAUCAUCGGGUG [Fam2.2 aminoacylation ribozyme variant]
2.39

Next record, please: CUACUUCAGACAAUCGGUUUG [Fam1A.1 aminoacylation ribozyme variant]
0.613

----------
test system: biotinyl-Met-oxazolone; assay: self-aminoacylation, catalytic enhancement (BMO) (fold over background); higher = more active; k-Seq, kA / k0A0; sequences stand for … in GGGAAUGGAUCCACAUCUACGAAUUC…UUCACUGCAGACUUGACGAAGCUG
Fewer inactive variants are shown than the library holds.
Below, each entry is listed with its recorded self-aminoacylation.
# print the numeric value only

>>> recorded_value("AUUACCCUGGUCAUCGAGGCA [Fam2.1 aminoacylation ribozyme variant]")
1.9
>>> recorded_value("AUUCACUUAGAUCAUCGGGUG [Fam2.2 aminoacylation ribozyme variant]")
2.14
>>> recorded_value("CGACACUUCAAGCACUCGGUC [Fam1B.1 aminoacylation ribozyme variant]")
1.38
>>> recorded_value("AAGUUUCCUAAUAGUCGCUAG [Fam3.1 aminoacylation ribozyme variant]")
1.78

Shift focus to the following entry.
Fill in: self-aminoacylation of AGUCACCUACGUCAUCGGGUG [Fam2.2 aminoacylation ribozyme variant] is ___
4.95

----------
test system: biotinyl-Phe-oxazolone; assay: self-aminoacylation, catalytic enhancement (BFO) (fold over background); higher = more active; k-Seq, kA / k0A0; sequences stand for … in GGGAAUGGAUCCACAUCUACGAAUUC…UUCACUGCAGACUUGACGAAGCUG
This sample holds only a part of the variants without activity.
recorded.endpoint: self-aminoacylation
# print the numeric value only

The cases that follow already have their self-aminoacylation on record.
>>> recorded_value("AUUCACGUAGGUCAUAGGGUG [Fam2.2 aminoacylation ribozyme variant]")
2.23
>>> recorded_value("CUACUGCAGACAAUCGGUCUG [Fam1A.1 aminoacylation ribozyme variant]")
0.577
>>> recorded_value("CCUCACUUCAUGCAAUCGGUC [Fam1B.1 aminoacylation ribozyme variant]")
1.17

Shift focus to the following entry.
Fill in: self-aminoacylation of AUUACGCUGGUCAGCGAGUGA [Fam2.1 aminoacylation ribozyme variant] is ___
21.2
